Recorded TGI for the following compounds
# Tested on: ACHN renal
# protocol_notes: NCI tumour cell line growth inhibition, 48 h

compound	TGI
CCOC(=O)/C(C#N)=C(O)/C(=C/c1ccccc1Cl)NC(=O)c1ccccc1	> 100 µM
C[C@]12CC[C@H]3[C@@H](CC=C4C[C@@H](O)CC[C@@]43C)[C@@H]1C/C(=C\c1cccc(OCCN3CCOCC3)c1)[C@@H]2O	> 100 µM
COc1ccc(CSCc2cc(OC)c(OC)c(OC)c2)cc1	> 100 µM
O=C1CCC(c2nc3ccccc3o2)C(=O)N1 (stereo unspecified)	> 100 µM
N#Cc1c(-c2ccccc2)c(C#N)c(=O)n(NS(=O)(=O)c2ccccc2)c1O	> 100 µM
CC(=O)c1c2c(cc3c1CC1(Cc4cc5c(cc4C1)CCC5)C3)CCC2	> 100 µM
Oc1cn(-c2ccc(Cl)cc2)nc1-c1nnc(Nc2ccccc2)o1	71.6 µM
COc1ccc2c(c1)c(Cc1c(C)n(C)c3ccc(OC)cc13)c(C)n2C	> 100 µM
COc1cc(C)cc2c1OC(c1ccccc1)CC2=O (stereo unspecified)	> 100 µM
COc1cc2c(cc1OC)-c1c(cnn1C1OC(COC(C)=O)C(OC(C)=O)C(OC(C)=O)C1OC(C)=O)CC2 (stereo unspecified)	> 100 µM
CCN=C1NN=C(c2ccccc2)c2cc(Cl)ccc2N1	> 100 µM
Cc1cccc2c3c(sc12)C(c1ccc(Cl)cc1)C(C#N)=C(/N=C/c1ccc(Cl)cc1)O3 (stereo unspecified)	> 100 µM
CN(C)c1ccc(C2CC(=O)CC(c3ccc(N(C)C)cc3)C23C(=O)NC(=O)NC3=O)cc1 (stereo unspecified)	> 25 µM
CCc1ccccc1NC(=O)CCc1nc(=S)[nH][nH]1	> 100 µM
COc1ncnc2c(NC3OC(CO)C(O)C3O)ncnc12 (stereo unspecified)	> 53.7 µM
C1CSCC2(COC2)CS1	> 100 µM
COc1ccccc1NC(=O)CC(=O)n1nc(C)c(N=Nc2ccccc2F)c1C	> 100 µM
C#Cc1cccc(NC(=O)Nc2ccc(NC(=O)CCl)cc2)c1	26 µM
Cc1ccc(-c2c(C#N)c(-c3ccc(N(C)C)cc3)c(C#N)c(=O)n2NS(=O)(=O)c2ccccc2)cc1	> 100 µM
COc1ccc(C2CC(=O)Nc3c2c(C)nn3-c2nc3ccccc3[nH]2)cc1 (stereo unspecified)	> 57.4 µM
O=C1C(NCCc2cc(Br)c(O)c(Br)c2)=CC(=O)c2ncccc21	24.9 µM
O=c1cc/c(=N\Nc2ccccc2)c(=O)/c1=N/Nc1ccccc1	> 50 µM
CN(C(=O)C1=CCCCCC1)c1ccccc1I	> 100 µM
Clc1nc(Cl)c2ncn(C/C=C\Cn3cnc4c(Cl)nc(Cl)nc43)c2n1	3.46 µM
CC1CCC2(OC1)OC1CC3C4CC=C5CC(OC6OC(CO)C(OC7OC(C)C(OC8OC(C)C(O)C(O)C8O)C(O)C7O)C(O)C6OC6OC(C)C(O)C(O)C6O)CCC5(C)C4CCC3(C)C1C2C (stereo unspecified)	2.79 µM
COc1c(O)cc(/C=C/c2cc(O)cc3c2[C@@]2(C(=O)O3)c3c(O)cc(O)cc3OC2c2cccc(O)c2)cc1O (stereo partly specified)	> 100 µM
O=C(O)C(/C=C/c1ccco1)=N\Nc1nc(-c2ccc(Cl)cc2)cs1	> 50 µM
COc1ccc2c(c1)[nH]c(=O)c1c3cccnc3cn21	13 µM
O=C1N=C2c3c(sc4c3CCCC4)N=CN2C1N=Nc1ccc(Cl)cc1 (stereo unspecified)	> 100 µM
CCNC(=O)C(O)C1(O)CCC2[C@@H]3CCC4=CC(=O)C=C[C@]4(C)C3[C@@H](O)C[C@@]21C (stereo partly specified)	> 100 µM
COC(=O)c1c2c(c(C)[n+]([O-])c1C)C(=O)C=C(NCc1ccc(Cl)cc1)C2=O	1.91 µM
C1=CCN(c2ccccc2)CC1	56.8 µM
CCn1c(=O)c2c(=O)[nH][nH]c2c2ccccc21	> 100 µM
COC(=O)C1=CN(CC2=CC(=O)C(C)=CC2=O)C=C(C(=O)OC)C1c1cccc(OC)c1OC	22.2 µM
OCCNc1nc(NCCO)nc(Nc2ccc(C3=NN(c4cc(Cl)cc(Cl)c4)C(c4ccc(Cl)cc4)C3)cc2)n1 (stereo unspecified)	3.17 µM
CC1(C)OC2C(CO)OC(n3ccc(=O)[nH]c3=O)C2O1 (stereo unspecified)	> 100 µM
N[C@@H]1C[C@H](N)c2c(Cl)sc(Cl)c21	> 100 µM
CC[C@@]1(O)C(=O)OCc2c1c(Cl)c1n(c2=O)Cc2cc3ccccc3nc2-1	6.05 µM
CCOc1ccc(NCC(=O)N2CC(=O)Nc3ccccc32)cc1	> 100 µM
CCN(CC)c1ccc(/C=C/C2=NN(c3cccc(S(=O)(=O)O)c3)C3(C2)C(Cl)C(=O)N3c2nc3ccccc3s2)cc1 (stereo unspecified)	23.8 µM
Cc1sc2ncnc(Sc3nc4ccccc4[nH]3)c2c1C	> 100 µM

====

# Test system: SK-MEL-5 melanoma
# protocol_notes: NCI tumour cell line growth inhibition, 48 h
Recorded GI50 for the following compounds
value_kind: GI50

compound	target_entity	measured_result
O=C1N=C2c3c(sc4c3CCCC4)N=CN2C1N=Nc1ccc(Cl)cc1 (centres undefined)	SK-MEL-5 melanoma	3610 nM
CCN(CC)c1ccc(/C=N/NC(=O)c2ccc(Nc3ccnc(C(F)(F)F)c3)cc2)c(O)c1	SK-MEL-5 melanoma	412 nM
CNC(=O)c1cc(Oc2ccc3nc(NC(=O)Nc4ccc(Cl)c(Cl)c4)sc3c2)ccn1	SK-MEL-5 melanoma	2240 nM
c1ccc(-c2nc(Nc3ccc(-c4nc5ccccc5[nH]4)cc3)nc(N3CCOCC3)n2)cc1	SK-MEL-5 melanoma	1690 nM
COc1cc(C)cc2c1OC(c1ccccc1)CC2=O (centres undefined)	SK-MEL-5 melanoma	> 100000 nM
O=c1cc/c(=N\Nc2ccccc2)c(=O)/c1=N/Nc1ccccc1	SK-MEL-5 melanoma	> 50000 nM
Cc1ccc(NC(=O)c2ccnc(C(F)(F)F)c2)cc1-c1cc(OCCO)nc(N2CCOCC2)c1	SK-MEL-5 melanoma	1500 nM
CC(C)(C)Cn1c(N)nc2ccc(-c3[nH]c(C(C)(C)C)nc3-c3ccc(F)cc3)nc21	SK-MEL-5 melanoma	11000 nM
O=C(Oc1ccccc1)c1cc(O)c(O)c(O)c1	SK-MEL-5 melanoma	11400 nM

====

Recorded TGI for the following compounds
# System: DMS 273 small cell lung
# protocol_notes: NCI tumour cell line growth inhibition, 48 h

compound	TGI
COc1ncnc2c(NC3OC(CO)C(O)C3O)ncnc12 (stereo not given)	5.74 µM
COc1ccc2[nH]c3c(cnn4cnnc34)c2c1	> 100 µM
COc1cc2c(cc1OC)-c1c(cnn1C1OC(COC(C)=O)C(OC(C)=O)C(OC(C)=O)C1OC(C)=O)CC2 (stereo not given)	> 100 µM
O=S(=O)(CC1=NC2C=CC=CC2N=C1)NCc1ccccc1 (stereo not given)	> 100 µM
O=C1C(NCCO)=C(N2CC2)C(=O)C(NCCO)=C1N1CC1	> 40 µM
CC(=O)OC1[C@H]2c3cc4c(cc3CN3CCC(C[C@@H]1OC(C)=O)C23)OCO4 (stereo not given in full)	> 75 µM
COc1ccc2c(c1)c(Cc1c(C)n(C)c3ccc(OC)cc13)c(C)n2C	> 100 µM
O=C1CCC(c2nc3ccccc3o2)C(=O)N1 (stereo not given)	> 100 µM
Clc1ccc(C2=Nc3ccccc3SC(c3ccc(Cl)c(Cl)c3)C2)c(Cl)c1 (stereo not given)	30 µM
Cc1cc2c(C(C)C)c(O)c(O)c3coc(/c1=c1/c(C)cc4c(C(C)C)c(=O)c(=O)c5coc1c45)c32	13.8 µM

====

# Test system: SF-268 CNS
# protocol_notes: NCI tumour cell line growth inhibition, 48 h
Recorded TGI for the following molecules
value_kind: TGI

molecule	measured_result
O=C1CCC(c2nc3ccccc3o2)C(=O)N1 (configuration not stated)	> 100 µM
Cn1c(=O)nc2n(CCO)c(-c3ccccc3)c(-c3ccccc3)nc-2c1=O	> 100 µM
CC(=O)OC1[C@H]2c3cc4c(cc3CN3CCC(C[C@@H]1OC(C)=O)C23)OCO4 (some centres not stated)	> 75 µM
CCc1ccccc1NC(=O)CCc1nc(=S)[nH][nH]1	> 100 µM
CCOC(=O)c1cc2c(cc1Cl)SC(N(c1ccc(F)cc1)S(=O)(=O)c1ccc(OC)cc1)=NS2(=O)=O	31.4 µM
FC(F)(F)c1ccc2c(c1)N(CCCN1CCN(C3CC3)CC1)c1ccccc1S2	26.8 µM
O=[N+]([O-])c1ccc(Cc2nc3ccccc3s2)cc1	> 100 µM
COc1cc2c(/C=C3/C(=O)Nc4ccccc43)c(Cl)n(Cc3ccccc3)c2cc1C	> 100 µM
C/C(C=O)=C1\C(O)C[C@]1(C)C1CC(C)(C)CC1O (some centres not stated)	> 100 µM
COc1ccc2oc(=N)c(C(N)=S)cc2c1	64.3 µM
CCOC(=O)c1sc(=S)c2c(C(=O)c3ccccc3)c(C(=O)c3ccccc3)sc2c1C(=O)OCC	71.8 µM
CC(C#N)Nc1ccc(Oc2ccc(C(C)(C)c3ccc(Oc4ccc(NC(C)C#N)cc4)cc3)cc2)cc1 (configuration not stated)	> 100 µM
O=C(Cc1ccccc1)N/N=C(/CCN1CCCC1)CC(c1ccccc1)c1c(O)c2ccccc2oc1=O (configuration not stated)	> 100 µM
COc1cc2c(cc1OCCCCCOc1cc(-c3ccc(F)cc3)nc(C)n1)N=C[C@@H]1CCCN1C2=O	> 65.2 µM
Nc1ncc2c(n1)-c1ccccc1OC2NC1CC1 (configuration not stated)	> 100 µM
O=C(O)Cc1cc(=O)oc2cc(O)c(Cl)cc12	> 100 µM
CSC1=N/C(=C\c2cccs2)C(=O)N1CN1CCCCC1	> 100 µM
Cc1sc2ncnc(Sc3nc4ccccc4[nH]3)c2c1C	62.1 µM
CCCCCCCCCC(=O)OCC1(CO)C/C(=C/CC(C(C)C)C(C)C)C(=O)O1 (configuration not stated)	> 100 µM
COc1ccc(C2=NNC(c3ccc(-c4ccc(OC)cc4[N+](=O)[O-])o3)C2)cc1 (configuration not stated)	53.2 µM
S=C(Nc1ccccc1)c1ccccn1	> 100 µM
CC(=O)NNC=N/C(C#N)=C(\N)C#N	> 100 µM
